B1: VH:VL chains; a variant is named by its letters at X, in order (parent)
chain 1: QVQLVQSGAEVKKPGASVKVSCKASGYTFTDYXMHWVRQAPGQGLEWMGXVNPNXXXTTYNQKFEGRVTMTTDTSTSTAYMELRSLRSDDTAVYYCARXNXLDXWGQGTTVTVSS
chain 2: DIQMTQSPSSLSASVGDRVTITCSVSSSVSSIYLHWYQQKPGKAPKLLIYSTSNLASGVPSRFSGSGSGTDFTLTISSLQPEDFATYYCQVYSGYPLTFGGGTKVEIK

variants of: B1; assay: yeast display scFab, FACS + sequencing; conditions: with MET
The list shows a part of the results. The true hit rate is not given.
assay_readout: antigen binding call

VTEGGALA | no binding
DRGRDSSA | no binding
ATTGSASF | no binding
SEARSSSF | no binding
YRRRGSLA | binds
YTGEGSWV | binds
YRGRSAWV | binds
VRRRGALA | binds
YKGRGSVY | binds
VAEKGALA | no binding
ATGEGDGV | no binding
YAREGSGA | no binding
YRRRGALA | binds
YRGRGSVY | binds
FRRGSSAV | binds
YRGEGDAV | binds
SKGRGAVY | binds
VAATAAGA | no binding
FRGRGALY | binds
VKGRTSVY | no binding
FTREASAV | no binding
VTTKSSAV | no binding

Reference source: the emibetuzumab library of Makowski et al. (2022)
